Origin of values: the supplement of paper PMC10567573

# experiment-summary: protein stability index of a GFP-peptide fusion (GPS, HEK-293T) (PSI 1-6); higher = more stable;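 further: 24-mer peptide tiles fused after GFP, lentivirally expressed, FACS-sorted into six equal bins by GFP/DsRed ratio, decoded by Illumina sequencing, PSI is the read-weighted mean bin number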
# condition: treatment: DMSO; c terminus: a fixed tail appended
Rule: protein stability index under 3 gives -1, otherwise 1.

sequence-string: VDGKTIKAQIWDTAGQERYRAITS [RAB11A]
assigned-label: 1

sequence-string: CQSVLEDFNLCLFYLPSSPNLSLA [SMG5]
assigned-label: -1

sequence-string: YHAVVEPMLWNPSGTPKRYSLELG [C22orf31]
assigned-label: -1

sequence-string: GSKNVFSTFRTPAVLFTGIVALYI [ATL3]
assigned-label: 1

sequence-string: NNQDFIPFTKKRVGVDRAFPLKPM [ZC2HC1C]
assigned-label: -1

sequence-string: ESAFKLSTGTSRWPSAKSAGWTLA [SCNN1D]
assigned-label: -1

sequence-string: WQLLLFLCATHFGEPLEKVASVGN [KISS1]
assigned-label: -1

###

# experiment-summary: protein stability index of a GFP-peptide fusion (GPS, HEK-293T) (PSI 1-6); higher = more stable
# condition: treatment: DMSO; c terminus: a fixed tail appended

sequence-string: APAQRATRGFLRSPSSDLDTDAEG [RETREG3]
protein stability index: 5.44
--
sequence-string: FDQLKQFLTFDKQVLRFYAIWDDT [EFHC1]
protein stability index: 2.31
--
sequence-string: PNIVVAIAGNKCDLIDVREVMERD [RAB22A]
protein stability index: 3.68

###

# experiment-summary: protein stability index of a GFP-peptide fusion (GPS, HEK-293T) (PSI 1-6); higher = more stable
# condition: treatment: MLN4924 1 uM, 8 h; c terminus: a fixed tail appended
Reported protein stability index values for a set of sequences

sequence-string: GLVPSEKPPMMPQAQPAIPRPNRL [C2CD2L]
protein stability index: 4.47
--
sequence-string: NVVTCAAGILSNLTCNNYKNKMMV [CTNNB1]
protein stability index: 2.46
--
sequence-string: LMCGGIAFWSLVTLGSSFIPGEHF [SPNS1]
protein stability index: 3.18
--
sequence-string: TITIGMFPAVTVEVKSSIAGSSTW [SLC29A1]
protein stability index: 2.4
--
sequence-string: SNDNEERLQVVKLLAKMFGAKDSE [PDS5B]
protein stability index: 3.12
--
sequence-string: MTKAGSKGGNLRDKLDGNELDLSL [LRRC59]
protein stability index: 4.63
--
sequence-string: GGVCCTVTLNFNVPGEFKQDVTVV [GFOD1]
protein stability index: 2.99
--
sequence-string: NEKITMQNLNDRLASYLEKVRALE [KRT13]
protein stability index: 3
--
sequence-string: GNLGSLEKSVTKDAEGLAARDVQK [INTS4]
protein stability index: 5.42
--
sequence-string: SSESSSDSDNSGGGGGGGGGGGGG [ANKRD17]
protein stability index: 5.7
--
sequence-string: RQLVEADINGLRRILDELTLCKAD [KRT36]
protein stability index: 3.32
--
sequence-string: LMGDESACIAYIRITQYLDAGGIP [CAMK2A]
protein stability index: 2.77
--
sequence-string: PAFRFLTKMWHPNIYETGDVCISI [CDC34]
protein stability index: 3.04
--
sequence-string: NEFLCTLQKKLDNLQCLYCEKTFR [ZNF277]
protein stability index: 2.38
--
sequence-string: AQLQALRQKEVDFCISLLRERFME [INTS3]
protein stability index: 2.58
--
sequence-string: LEPEAAEEALENGPKESLPVIAAP [ACBD3]
protein stability index: 5.64
--
sequence-string: QKILCSKSENARLVVQIDNAKLAA [KRT33B]
protein stability index: 3.33
--
sequence-string: RMLTDKEREMAEIRDQMQQQLNDY [LMNB1]
protein stability index: 5.08
--
sequence-string: DISETFNHANGLTLVSRAHQLVME [PPP2CA]
protein stability index: 2.82
--
sequence-string: FEFLYNALEFWRQEELTRINQSFT [IQUB]
protein stability index: 2.45
--
sequence-string: FLMRKCGWFVRELRVEFAAENYLS [FBXO33]
protein stability index: 2.8
--
sequence-string: EPGPRPALQPSPSIRLPLDAPLPG [TBC1D10A]
protein stability index: 5.06
--
sequence-string: RLEPLEHRRRTICGTPNYLSPEVL [PLK2]
protein stability index: 3.67
--
sequence-string: LRNCKTYQARKPLWFYNTSLKFFL [RHOBTB3]
protein stability index: 2.84
--
sequence-string: MKGRGQLEKPPAPNQAMVVAAAGD [TBC1D10A]
protein stability index: 4.94
